Reference source: patent US20150086555A1

molecular target: recombinant homotrimeric HA A/Hong Kong/156/97 H5N1 (Influenza A virus A/Hong Kong/156/97 (H5N1)); test: protein microarray, purified IgG, trimeric HA; settings: remark: other sources report otherwise
Define the label as true (1) when Trimeric HA Binding: RLU is strictly less than 800 RLU and as false (0) in all remaining cases.

>>> category("TCN-543 (5081_G23) (antibody, V domains shown) VH: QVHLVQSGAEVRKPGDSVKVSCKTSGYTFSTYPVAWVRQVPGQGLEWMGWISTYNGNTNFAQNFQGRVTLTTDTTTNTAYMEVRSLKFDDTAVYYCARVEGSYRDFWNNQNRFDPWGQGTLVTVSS VL: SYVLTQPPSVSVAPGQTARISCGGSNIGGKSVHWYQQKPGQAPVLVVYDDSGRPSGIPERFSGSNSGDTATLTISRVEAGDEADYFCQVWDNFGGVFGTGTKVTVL")
"true (1)"
>>> category("TCN-523 (5248_A17) (antibody, V domains shown) VH: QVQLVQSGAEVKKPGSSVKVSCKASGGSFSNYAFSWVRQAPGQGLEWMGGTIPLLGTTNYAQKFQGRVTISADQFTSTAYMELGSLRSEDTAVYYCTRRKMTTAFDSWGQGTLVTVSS VL: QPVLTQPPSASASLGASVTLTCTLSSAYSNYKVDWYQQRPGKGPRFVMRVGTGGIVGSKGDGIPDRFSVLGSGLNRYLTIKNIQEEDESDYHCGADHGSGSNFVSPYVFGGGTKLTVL")
"false (0)"
>>> category("TCN-539 (5056_A08) (antibody, V domains shown) VH: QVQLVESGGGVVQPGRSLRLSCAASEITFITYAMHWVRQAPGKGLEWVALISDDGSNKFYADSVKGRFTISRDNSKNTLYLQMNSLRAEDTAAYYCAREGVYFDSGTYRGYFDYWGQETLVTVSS VL: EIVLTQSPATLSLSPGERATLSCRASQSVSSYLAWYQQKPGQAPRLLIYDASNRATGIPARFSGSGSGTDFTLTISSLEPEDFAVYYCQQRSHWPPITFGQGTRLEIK")
"true (1)"
>>> category("TCN-553 (5261_C18) (antibody, V domains shown) VH: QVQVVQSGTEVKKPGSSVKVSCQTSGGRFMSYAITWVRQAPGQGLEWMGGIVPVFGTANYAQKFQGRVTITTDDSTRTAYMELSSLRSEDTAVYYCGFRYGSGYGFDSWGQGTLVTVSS VL: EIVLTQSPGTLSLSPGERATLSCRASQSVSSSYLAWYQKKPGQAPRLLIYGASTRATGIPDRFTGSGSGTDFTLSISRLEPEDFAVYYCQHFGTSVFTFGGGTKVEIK")
"false (0)"
>>> category("TCN-537 (3194_D21) (antibody, V domains shown) VH: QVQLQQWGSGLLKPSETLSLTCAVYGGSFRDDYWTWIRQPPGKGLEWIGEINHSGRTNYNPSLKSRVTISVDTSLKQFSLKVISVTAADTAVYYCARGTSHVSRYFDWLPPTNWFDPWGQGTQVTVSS VL: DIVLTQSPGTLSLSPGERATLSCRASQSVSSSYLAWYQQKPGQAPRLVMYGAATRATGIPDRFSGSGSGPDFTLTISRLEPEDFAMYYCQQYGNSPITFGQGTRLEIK")
"false (0)"
